- system-tested: BRD4 short (Homo sapiens, UniProt O60885)
- Construct: endogenous in cells; host or cells: HEK293T
- experimental-details: BRD4 (short) degradation assay, Western blotting
- Assay type: cell-based
- applied-conditions: second value of cell (long/short)
recorded-metric: DC50

1) COc1ccc(C(=O)/C=C(\C#N)C(=O)N2CCN(C(=O)C[C@@H]3N=C(c4ccc(Cl)cc4)c4c(sc(C)c4C)-n4c(C)nnc43)CC2)cc1 ... > 1 µM

# per-item lookup of DC50; items listed below
1. COc1ccc(C(=O)/C=C/C(=O)N2CCN(C(=O)C[C@@H]3N=C(c4ccc(Cl)cc4)c4c(sc(C)c4C)-n4c(C)nnc43)CC2)c(F)c1
2. COc1ccc2c(c1)CCN(C(=O)/C=C/C(=O)N1CCN(C(=O)C[C@@H]3N=C(c4ccc(Cl)cc4)c4c(sc(C)c4C)-n4c(C)nnc43)CC1)C2
3. COc1ccc(C(=O)/C=C/C(=O)N2CCN(C(=O)C[C@@H]3N=C(c4ccc(Cl)cc4)c4c(sc(C)c4C)-n4c(C)nnc43)C[C@@H]2C)cc1
4. COc1ccc(C(=O)/C=C/C(=O)N2CC3(CCN(C(=O)C[C@@H]4N=C(c5ccc(Cl)cc5)c5c(sc(C)c5C)-n5c(C)nnc54)CC3)C2)cc1
5. COc1ccc(C(=O)/C=C/C(=O)N[C@H]2C[C@H](NC(=O)C[C@@H]3N=C(c4ccc(Cl)cc4)c4c(sc(C)c4C)-n4c(C)nnc43)C2)cc1F
6. COc1ccc(C(=O)/C=C/C(=O)N2CCN(C(=O)C[C@@H]3N=C(c4ccc(Cl)cc4)c4c(sc(C)c4C)-n4c(C)nnc43)C[C@H]2C)cc1
7. COc1ccc(C(=O)/C=C/C(=O)N2CCC3(CC2)CN(C(=O)C[C@@H]2N=C(c4ccc(Cl)cc4)c4c(sc(C)c4C)-n4c(C)nnc42)CCO3)cc1

1. < 0.1 µM
2. > 5 µM
3. 0.01 to 0.1 µM
4. 0.01 to 0.1 µM
5. 0.19 µM
6. < 0.01 µM
7. 0.001 to 0.01 µM

###

- system-tested: BRD4 short (Homo sapiens)
- Construct: endogenous in cells; host or cells: HEK293T
- experimental-details: BRD4 (short) degradation assay, Western blotting
- Assay type: cell-based
- applied-conditions: second value of cell (long/short)
recorded-metric: DC50

1. Cc1sc2c(c1C)C(c1ccc(Cl)cc1)=N[C@@H](CC(=O)N[C@H]1C[C@H](NC(=O)/C=C/C(=O)c3ccc4c(c3)CCO4)C1)c1nnc(C)n1-2 [Compound 211] ... 10 to 100 nM

For each of the items listed, what is its DC50?
1. COc1ccc(C(=O)/C=C\C(=O)N2CCN(C(=O)C[C@@H]3N=C(c4ccc(Cl)cc4)c4c(sc(C)c4C)-n4c(C)nnc43)CC2)cc1 [Compound 232]
2. COc1ccc(C(=O)/C=C/C(=O)N2[C@H](C)CN(C(=O)C[C@@H]3N=C(c4ccc(Cl)cc4)c4c(sc(C)c4C)-n4c(C)nnc43)C[C@@H]2C)cc1 [Compound 215]
3. Cc1sc2c(c1C)C(c1ccc(Cl)cc1)=N[C@@H](CC(=O)N1CCN(C(=O)/C=C/C(=O)c3ccc4c(c3)CCO4)CC1)c1nnc(C)n1-2 [Compound 210]
4. COc1ccc(C(=O)/C(C)=C/C(=O)N2CCN(C(=O)C[C@@H]3N=C(c4ccc(Cl)cc4)c4c(sc(C)c4C)-n4c(C)nnc43)CC2)cc1 [Compound 139]

1: 10 to 100 nM; 2: 10 to 100 nM; 3: < 100 nM; 4: > 1000 nM

Which DC50 is listed for COc1ccc(C(=O)/C=C/C(=O)N2C[C@H]3CN(C(=O)C[C@@H]4N=C(c5ccc(Cl)cc5)c5c(sc(C)c5C)-n5c(C)nnc54)[C@H]3C2)cc1 [Compound 212] ? 10 to 100 nM

###

- system-tested: CDK4 (Homo sapiens, UniProt P11802)
- Construct: endogenous in cells; host or cells: C33A
- experimental-details: CDK4 Degradation Assay, Western blotting
- Assay type: cell-based
recorded-metric: DC50

In the examples that follow, each entry is paired with its recorded DC50.
1. CN(C)C(=O)c1cc2cnc(Nc3ccc(N4CCN(C(=O)/C=C/C(=O)c5ccc(F)cc5)CC4)cn3)nc2n1C1CCCC1 [Compound 151] ... > 10 µM
2. COc1ccc(C(=O)/C=C/C(=O)N[C@H]2C[C@@H](Nc3ccc(Nc4ncc5cc(C(=O)N(C)C)n(C6CCCC6)c5n4)nc3)C2)cc1 [Compound 269] ... > 10 µM

# next molecule below
Which DC50 is reported for this molecule? CN(C)C(=O)c1cc2cnc(Nc3ccc(N4CCN(C(=O)/C=C/C(=O)c5cccc(Br)c5)CC4)cn3)nc2n1C1CCCC1 [Compound 259] > 10 µM

###

Assignment: determine reported DC50 for the given molecules.
- system-tested: BRD4 long (Homo sapiens)
- Construct: endogenous in cells; host or cells: HEK293T
- experimental-details: BRD4 (long) degradation assay, Western blotting
- Format: cell-based
- applied-conditions: first value of cell (long/short)
- Description: C33A cells were purchased from American Type Culture Collection (ATCC) and were cultured in Dulbecco's Modified Eagle Medium (DMEM) containing 10% (v/v) fetal bovine serum (FBS) and maintained at 37° C. with 5% CO2. […] Cells were washed twice with cold PBS, scraped, and pelleted by centrifugation (700 g, 5 min, 4° C.). […] Proteome concentrations were determined using BCA assay and lysate was diluted to appropriate working concentrations. […]

Observe how each entry below is paired with its result.
1) Cc1sc2c(c1C)C(c1ccc(Cl)cc1)=N[C@@H](CC(=O)N1CCN(C(=O)/C=C/C(=O)N3CCOCC3)CC1)c1nnc(C)n1-2 [Compound 248] ... > 5000 nM
2) COc1ccc(C(=O)/C=C/C(=O)N2CCN(C(=O)C[C@@H]3N=C(c4ccc(Cl)cc4)c4c(sc(C)c4C)-n4c(C)nnc43)C[C@H]2C)cc1 [Compound 217] ... < 10 nM
3) COc1ccc(NC(=O)/C=C/C(=O)N2CCN(C(=O)C[C@@H]3N=C(c4ccc(Cl)cc4)c4c(sc(C)c4C)-n4c(C)nnc43)CC2)cc1 [Compound 246] ... > 5000 nM
4) Cc1sc2c(c1C)C(c1ccc(Cl)cc1)=N[C@@H](CC(=O)N1CCN(C(=O)/C=C/C(=O)c3ccc(F)cc3)CC1)c1nnc(C)n1-2 [Compound 202] ... < 100 nM
5) COc1ccc2c(c1)CCN(C(=O)/C=C/C(=O)N1CCN(C(=O)C[C@@H]3N=C(c4ccc(Cl)cc4)c4c(sc(C)c4C)-n4c(C)nnc43)CC1)C2 [Compound 252] ... > 5000 nM
6) Cc1sc2c(c1C)C(c1ccc(Cl)cc1)=N[C@@H](CC(=O)N1CCN(C(=O)/C=C/C(=O)c3ccccc3)CC1)c1nnc(C)n1-2 [Compound 140] ... < 100 nM

# input for lookup
Which DC50 is reported for this molecule? COc1ccc(C(=O)/C=C/C(=O)N2CCN(C(=O)C[C@@H]3N=C(c4ccc(Cl)cc4)c4c(sc(C)c4C)-n4c(C)nnc43)[C@@H](C)C2)cc1 [Compound 216] < 10 nM

###

- system-tested: BRD4 short (Homo sapiens)
- Construct: endogenous in cells; host or cells: HEK293T
- experimental-details: BRD4 (short) degradation assay, Western blotting
- Format: cell-based
- applied-conditions: second value of cell (long/short)
- Procedure: C33A cells were purchased from American Type Culture Collection (ATCC) and were cultured in Dulbecco's Modified Eagle Medium (DMEM) containing 10% (v/v) fetal bovine serum (FBS) and maintained at 37° C. with 5% CO2. […] Cells were washed twice with cold PBS, scraped, and pelleted by centrifugation (700 g, 5 min, 4° C.). […] Proteome concentrations were determined using BCA assay and lysate was diluted to appropriate working concentrations. […]
recorded-metric: DC50

Field: example entries. Status: answers known.
1. COc1ccc(C(=O)/C=C/C(=O)N[C@H]2C[C@H](NC(=O)C[C@@H]3N=C(c4ccc(Cl)cc4)c4c(sc(C)c4C)-n4c(C)nnc43)C2)cc1 ... 12 nM
2. COc1ccc(C(=O)/C=C/C(=O)N2CCN(C(=O)C[C@@H]3N=C(c4ccc(Cl)cc4)c4c(sc(C)c4C)-n4c(C)nnc43)CC2)c(Cl)c1 ... 10 to 100 nM
3. COc1ccc(C(=O)/C=C/C(=O)N2CCN(C(=O)C[C@@H]3N=C(c4ccc(Cl)cc4)c4c(sc(C)c4C)-n4c(C)nnc43)[C@@H](C)C2)cc1 ... < 10 nM
4. Cc1sc2c(c1C)C(c1ccc(Cl)cc1)=N[C@@H](CC(=O)N[C@H]1C[C@H](NC(=O)/C=C/C(=O)N3CC4(COC4)C3)C1)c1nnc(C)n1-2 ... > 5000 nM

Please give DC50, item by item, for the list that follows.
1. COc1ccccc1C(=O)/C=C/C(=O)N1CCN(C(=O)C[C@@H]2N=C(c3ccc(Cl)cc3)c3c(sc(C)c3C)-n3c(C)nnc32)CC1
2. COc1cc(F)ccc1C(=O)/C=C/C(=O)N1CCN(C(=O)C[C@@H]2N=C(c3ccc(Cl)cc3)c3c(sc(C)c3C)-n3c(C)nnc32)CC1

["< 100 nM", "< 100 nM"]
